Measured EC50 of individual entries
system: UniProt Q99500
assay.text: Agonist activity at human SIP3 receptor assessed as calcium mobilization by GeneBLAzer assay
measurement.label: EC50

> print(dat)
                              sample.smiles  result.value
1  O=C(O)CCN1CCC(c2ccc3oc(-c4ccc(-c5ccccc5)c(C(F)(F)F)c4)nc3c2)CC1       1000 nM
2  O=C(O)CCCCCc1ccn2cc(-c3ccc(-c4ccccc4)c(C(F)(F)F)c3)nc2c1    > 10000 nM
3  CC(C)Oc1ccc(-c2nc3cc(CCCCCC(=O)O)cnc3o2)cc1Cl    > 10000 nM
4  O=C(O)CCCCCc1ccc2[nH]c(-c3ccc(-c4ccccc4)c(C(F)(F)F)c3)cc2c1    > 10000 nM
5  O=C(O)CCNCCc1ccc2oc(-c3ccc(-c4ccccc4)c(C(F)(F)F)c3)nc2c1        200 nM

###

system: Sphingosine 1-phosphate receptor 1 (Homo sapiens)
assay.text: Agonist activity at SIP1 receptor by tango assay
pEC50: −log10 of the molar value.
measurement.label: pEC50

> print(dat)
                              sample.smiles  op  result.value
1  CC(C)Oc1ncc(-c2nc3cc(CCCCCC(=O)O)cnc3o2)cc1Cl   =          6.00
2  O=C(O)CCCCCc1cn2cc(-c3ccc(-c4ccccc4)c(C(F)(F)F)c3)nc2s1   =          7.20
3  CC(C)Oc1ccc(-c2nc(-c3cccc4c3ccn4CCC(=O)O)no2)cc1Cl   =         11.00
4  O=C(O)CN1CCC(c2ccc3oc(-c4ccc(-c5ccccc5)c(C(F)(F)F)c4)nc3c2)CC1   =          9.00
5  CC(C)Oc1ccc(-c2nc3cc(CCC(=O)O)cnc3o2)cc1Cl   <          5.50

###

system: Sphingosine 1-phosphate receptor 1 (Homo sapiens, UniProt P21453)
Sequence (P21453 whole entry): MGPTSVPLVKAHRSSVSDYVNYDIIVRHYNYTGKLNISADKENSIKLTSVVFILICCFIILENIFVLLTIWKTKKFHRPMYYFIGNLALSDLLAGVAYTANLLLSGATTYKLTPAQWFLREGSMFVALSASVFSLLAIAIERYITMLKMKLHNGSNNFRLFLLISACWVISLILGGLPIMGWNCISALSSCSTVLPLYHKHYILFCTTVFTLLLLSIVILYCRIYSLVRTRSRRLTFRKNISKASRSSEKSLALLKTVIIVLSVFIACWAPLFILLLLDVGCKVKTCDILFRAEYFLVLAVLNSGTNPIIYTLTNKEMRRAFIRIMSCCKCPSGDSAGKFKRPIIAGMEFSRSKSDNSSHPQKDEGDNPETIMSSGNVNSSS
assay.text: Agonist activity at SIP1 receptor by tango assay
Mark Satisfied only for EC50 values smaller than 0.5 nM; exact matches and larger values are Not satisfied.

> print(dat)
                              sample.smiles  classification
1  O=C(O)CCCCCc1ccc2[nH]c(-c3ccc(-c4ccccc4)c(C(F)(F)F)c3)cc2c1   Not satisfied
2  O=C(O)CCCCCc1ccn2nc(-c3ccc(-c4ccccc4)c(C(F)(F)F)c3)nc2c1   Not satisfied
3  O=C(O)C1CCN(CCCc2ccc3oc(-c4ccc(-c5ccccc5)c(C(F)(F)F)c4)nc3c2)CC1   Not satisfied
4  CC(C)Oc1ccc(-c2nc3cc(CCCCC(=O)O)cnc3o2)cc1Cl   Not satisfied
5  O=C(O)C1CN(CCc2ccc3oc(-c4ccc(-c5ccccc5)c(C(F)(F)F)c4)nc3c2)C1       Satisfied
6  O=C(O)CCN1CCC(c2ccc3oc(-c4ccc(-c5ccccc5)c(C(F)(F)F)c4)nc3c2)CC1       Satisfied
7  O=C(O)CCCCCc1cnc2oc(-c3ccc(-c4ccccc4)c(C(F)(F)F)c3)nc2c1       Satisfied
8  O=C(O)C1CCN(c2ccc3oc(-c4ccc(-c5ccccc5)c(C(F)(F)F)c4)nc3c2)CC1   Not satisfied

###

assay.text: Clearance in iv dosed mouse
Type: ADME, organism-based
cond: in vivo
measurement.label: clearance (mL/min/kg)

> print(dat)
                              sample.smiles  result.value
1  O=C(O)C1CCN(c2ccc3oc(-c4ccc(-c5ccccc5)c(C(F)(F)F)c4)nc3c2)CC1          3.68

###

assay.text: Half life in mouse at 2 mg/kg, po
Assay type: ADME, organism-based
Set-up: dose 2 mg/kg, route oral
cond: in vivo
measurement.label: half-life

> print(dat)
                              sample.smiles  measurement.label  result.value
1  O=C(O)C1CCN(c2ccc3oc(-c4ccc(-c5ccccc5)c(C(F)(F)F)c4)nc3c2)CC1          half-life       324 min

###

system: Sphingosine 1-phosphate receptor 1 (Homo sapiens, UniProt P21453)
assay.text: Agonist activity at SIP1 receptor by tango assay
pEC50: −log10 of the molar value.
Measured pEC50 of individual entries
measurement.label: pEC50

> print(dat)
                              sample.smiles  measurement.label  op  result.value
1  O=C(O)CCCCCc1cnc2sc(-c3ccc(-c4ccccc4)c(C(F)(F)F)c3)nc2c1              pEC50   =          8.00
2  O=C(O)CNCCCc1ccc2oc(-c3ccc(-c4ccccc4)c(C(F)(F)F)c3)nc2c1              pEC50   =         10.50
3  CN(CCCc1ccc2oc(-c3ccc(-c4ccccc4)c(C(F)(F)F)c3)nc2c1)CC(=O)O              pEC50   =          9.50
4  CC(C)Oc1ccc(-c2nc3cc(C(=O)O)cnc3o2)cc1Cl              pEC50   <          5.50

###

system: Sphingosine 1-phosphate receptor 3 (Homo sapiens, UniProt Q99500)
Sequence (Q99500 whole entry): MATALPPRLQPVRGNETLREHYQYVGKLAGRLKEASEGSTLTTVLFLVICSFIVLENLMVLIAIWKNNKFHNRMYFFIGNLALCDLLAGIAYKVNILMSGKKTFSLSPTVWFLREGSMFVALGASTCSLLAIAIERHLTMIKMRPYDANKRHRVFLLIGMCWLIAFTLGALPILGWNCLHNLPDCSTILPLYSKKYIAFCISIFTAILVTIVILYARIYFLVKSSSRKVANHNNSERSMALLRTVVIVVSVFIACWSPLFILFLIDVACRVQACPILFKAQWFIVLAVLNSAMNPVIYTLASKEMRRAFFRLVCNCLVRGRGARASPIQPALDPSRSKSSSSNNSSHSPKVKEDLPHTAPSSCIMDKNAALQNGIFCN
assay.text: Agonist activity at human SIP3 receptor assessed as calcium mobilization by GeneBLAzer assay
measurement.label: EC50

> print(dat)
                                   compound  measurement.label  result.value
1  O=C(O)C1CCCN(CCCc2ccc3oc(-c4ccc(-c5ccccc5)c(C(F)(F)F)c4)nc3c2)C1 (stereo not given)               EC50       2000 nM
2  O=C(O)C1CN(CCc2ccc3oc(-c4ccc(-c5ccccc5)c(C(F)(F)F)c4)nc3c2)C1               EC50        794 nM
3  CC(C)Oc1ccc(-c2nc3cc(CCCCC(=O)O)cnc3o2)cc1Cl               EC50    > 10000 nM
4  O=C(O)CNCCCc1ccc2oc(-c3ccc(-c4ccccc4)c(C(F)(F)F)c3)nc2c1               EC50        251 nM
5  O=C(O)C1CN(CCCc2ccc3oc(-c4ccc(-c5ccccc5)c(C(F)(F)F)c4)nc3c2)C1               EC50        126 nM

###

assay.text: Ratio of drug level in brain to blood in iv dosed mouse after 4 hrs
Assay type: ADME, organism-based
cond: read-out: BBR
measurement.label: Kp at 4 h

> print(dat)
                              sample.smiles  result.value
1  O=C(O)C1CCN(c2ccc3oc(-c4ccc(-c5ccccc5)c(C(F)(F)F)c4)nc3c2)CC1          3.73

###

system: Sphingosine 1-phosphate receptor 3 (Homo sapiens)
assay.text: Agonist activity at human SIP3 receptor assessed as calcium mobilization by GeneBLAzer assay
measurement.label: EC50

> print(dat)
                              sample.smiles  measurement.label  result.value
1  O=C(O)CCCCCc1cnc2oc(-c3ccc(-c4ccccc4)c(C(F)(F)F)c3)nc2c1               EC50    > 10000 nM
2  O=C(O)CN1CCN(c2ccc3oc(-c4ccc(-c5ccccc5)c(C(F)(F)F)c4)nc3c2)CC1               EC50       2000 nM
3  O=C(O)CCCCCc1ccc2oc(-c3ccc(-c4ccccc4)c(C(F)(F)F)c3)nc2c1               EC50    > 10000 nM
4  O=C(O)C1CCN(CCc2ccc3oc(-c4ccc(-c5ccccc5)c(C(F)(F)F)c4)nc3c2)CC1               EC50        501 nM
5  CN(CCCc1ccc2oc(-c3ccc(-c4ccccc4)c(C(F)(F)F)c3)nc2c1)CC(=O)O               EC50       1000 nM

###

system: Sphingosine 1-phosphate receptor 1 (Homo sapiens, UniProt P21453)
assay.text: Agonist activity at SIP1 receptor by tango assay
Assay type: functional
pEC50: −log10 of the molar value.
measurement.label: pEC50

> print(dat)
                              sample.smiles  result.value
1  CC(C)Oc1ncc(-c2nc3cc(CCCCCC(=O)O)cnc3o2)cc1C(F)(F)F          8.20
2  O=C(O)CN1CCN(c2ccc3oc(-c4ccc(-c5ccccc5)c(C(F)(F)F)c4)nc3c2)CC1          9.40
3  O=C(O)CCCCCc1ccn2cc(-c3ccc(-c4ccccc4)c(C(F)(F)F)c3)nc2c1          6.40
4  O=C(O)CC1CCN(c2ccc3oc(-c4ccc(-c5ccccc5)c(C(F)(F)F)c4)nc3c2)CC1          8.90
5  O=C(O)CCCCCc1ccc2oc(-c3ccc(-c4ccccc4)c(C(F)(F)F)c3)nc2c1          9.40
